meta.source: ChEMBL document CHEMBL4477225

ASSAYED_TARGET: Cytochrome P450 2C9 (Homo sapiens, UniProt P11712)
Sequence (P11712 whole entry): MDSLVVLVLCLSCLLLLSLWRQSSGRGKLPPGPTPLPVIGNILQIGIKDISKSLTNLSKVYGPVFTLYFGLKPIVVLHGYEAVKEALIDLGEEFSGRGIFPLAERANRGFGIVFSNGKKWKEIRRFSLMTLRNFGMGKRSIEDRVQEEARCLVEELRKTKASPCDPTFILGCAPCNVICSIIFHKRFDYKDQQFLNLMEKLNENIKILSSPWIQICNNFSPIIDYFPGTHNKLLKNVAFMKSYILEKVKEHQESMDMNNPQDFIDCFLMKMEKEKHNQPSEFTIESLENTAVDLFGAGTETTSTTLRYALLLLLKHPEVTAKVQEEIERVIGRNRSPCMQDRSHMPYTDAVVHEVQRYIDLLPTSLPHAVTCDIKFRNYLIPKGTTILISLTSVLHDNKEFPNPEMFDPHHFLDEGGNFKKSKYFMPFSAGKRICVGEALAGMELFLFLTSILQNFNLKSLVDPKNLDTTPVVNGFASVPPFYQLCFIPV
EXPERIMENT: Drug activation in human Hep3B cells assessed as human CYP2C9-mediated drug metabolism-induced cytotoxicity measured as decrease in cell viability at 300 uM pre-incubated with BSO for 18 hrs followed by incubation with compound for 3 hrs in presence of NADPH measured after 24 hrs in absence of compound, CYP3A4 and NADPH by cell titer-glo luminescence assay relative to BSO alone
RUN_PARAMETERS: recombinant enzyme
Hi there, I'd appreciate the recorded FC for every entry that follows.
Note: the reply should be a number with no unit written.

Ask | Which measured FC value corresponds to CN1Cc2c(N)cccc2C(c2ccccc2)C1 (stereo not given) ?
Reply | 0.3

Ask | Need FC, item C[C@H]1O[C@@H](O[C@H]2[C@@H](O)C[C@H](O[C@H]3[C@@H](O)C[C@H](O[C@H]4CC[C@@]5(C)[C@H](CC[C@@H]6[C@@H]5C[C@@H](O)[C@]5(C)[C@@H](C7=CC(=O)OC7)CC[C@]65O)C4)O[C@@H]3C)O[C@@H]2C)C[C@H](O)[C@@H]1O
Reply | 1

Ask | Could you share which FC value was measured for O=P1(N(CCCl)CCCl)NCCCO1 (stereo not given) [CYCLOPHOSPHAMIDE ANHYDROUS] ?
Reply | 1

Ask | What value of FC has been recorded for this entry: Nc1ccn([C@@H]2CS[C@H](CO)O2)c(=O)n1
Reply | 1

Ask | Requested field: FC. Item: NNC(=O)c1ccncc1
Reply | 1
